System: Saccharomyces cerevisiae
assay procedure: protein stability index of tFT-peptide fusion (C-terminal peptide) (PSI (0-1 scale)); higher = more stable (slower turnover)
test conditions: genetic background: wild type; temperature: 30 C
Decision: protein stability index >= 0.7 yields yes (1), all other cases yield no (0).

KALNEIFMITND [PXR1 C-terminal 12 aa] : yes (1)
QAKKSNSCCIIM [YKT6 C-terminal 12 aa] : yes (1)
FKQKYDADVLDK [RPL11A C-terminal 12 aa] : yes (1)

Next up:
Could you tell me if the measured protein stability index of ANLVYMKADVFC [HTD2 C-terminal 12 aa] reaches 0.7 or more? no (0)

====

# protein stability index listing for each entry below
Test system: Saccharomyces cerevisiae
assay procedure: protein stability index of tFT-peptide fusion (C-terminal peptide) (PSI (0-1 scale)); higher = more stable (slower turnover)
test conditions: genetic background: wild type; temperature: 30 C
// keep it numeric: no unit symbol after the value

GVCLGFICVGFC : 0.362
VLLGYPRILSLF : 0.167
PLPSFLYFILLR : 0.357
RCCWWNAQAVWR : 0.631
GKGVFGGLFFLV : 0.211
RLSTPFTVNHFI : 0.168

Which protein stability index value is on record for WVRIIIKLRASL ? 0.253

Need protein stability index, item RLFIIYLLNIQG 0.305

Looking for the measured protein stability index of LCRCPVGVFVLL , can you help? 0.303

Requested read-out: protein stability index. Entry: TWGGGRVSLGVG 0.359

I have this sequence here, FFSRIIAILVLM , and I need its recorded protein stability index. 0.144

====

Tested on: Saccharomyces cerevisiae
assay procedure: protein stability index of tFT-peptide fusion in deletion strain of DAS1 (PSI (0-1 scale)); higher = more stable (slower turnover)
Reported protein stability index values for the following sequences.
# output: bare number, no unit

Examples from the recorded data:
PCKRNHLIKLLN : 0.614
FSMRWTFRYPVN : 0.555
CTSCGYKFRTNNH : 0.706
LVVYCSCVACIN : 0.0283

So what's the measured protein stability index for this one? LVVYLSAVACIN 0.0365

Name the reported protein stability index value associated with the sequence HKHKKGQKQKIN 0.604

So what's the measured protein stability index for this one? KKHKTGQKQKIN 0.628

Consider the sequence shown here: LKILRQKMNHQNQ What is its recorded protein stability index? 0.685

I am curious: what protein stability index value has been reported for PDKRNHLIKFLN ? 0.583

Report protein stability index for LKILRQKMWHQN please. 0.657

// returns reported protein stability index for input LVVYLSCVACIH 0.0535

What value of protein stability index has been reported for the following sequence? CTSCGYKFRTNNK 0.682

What value of protein stability index has been reported for the following sequence? PCLAASFWRVVG 0.68

====

System: Saccharomyces cerevisiae
assay procedure: protein stability index of tFT-peptide fusion (C-terminal peptide) (PSI (0-1 scale)); higher = more stable (slower turnover)
test conditions: genetic background: cdc34-1; temperature: 37 C
readout type: protein stability index
// keep it numeric: no unit symbol after the value

Some solved entries appear below for comparison.
LGSYVWVFVYFW : 0.159
FVGLFEYILLFV : 0.186
LSILLFVQFFPP : 0.317
FLFCACIRVFSY : 0.0501
LVLFYLWSSVWA : 0.4
DAGSSYRFFRFI : 0.693
VTRLLLSRIDCY : 0.437
VSGSFRVCFRVW : 0.612

Any idea what protein stability index was measured for LSASFYFVFFSN ? 0.56

GET /values?readout=protein stability index&item= VFLCVRLGFIFL 0.419

Quick check: protein stability index of VLLGYPRILSLF ? 0.7

====

Test system: Saccharomyces cerevisiae
assay procedure: protein stability index of tFT-peptide fusion (C-terminal peptide) (PSI (0-1 scale)); higher = more stable (slower turnover)
test conditions: genetic background: cdc34-1; temperature: 37 C
Labels assigned by protein stability index range: group A: < 0.4; group B: ≥ 0.4 and < 0.6; group C: ≥ 0.6

As a guide, the following entries are already answered.
RCCWWNAQAVWR : group C
LLRIFLPLLYLL : group A
CGGVQVWRVKVV : group C
LPTVSRPGALIC : group B
KFRGMTLRNKVC : group B
LGDPPCRMIVVR : group B
VYTVGFVCWLVY : group A
DLLKAILKIKSL : group B
TWGGGRVSLGGG : group A
VGGGGRFWVCVG : group C

Kindly state the category for this sequence: ALFLLWVVMHDV group A

Any idea which band PLRRPPPRPPWP is in? group C

Class? Entry: YNKIRNNEKKMT group C

Given WSSWFLWVIFRL , name the class its protein stability index places it in. group A

Please let me know in which category the item LVLLIQKFLTDK belongs. group C

Kindly identify the class of VSFLVSIFVSGV . group A

Dear colleague, I would appreciate it if you could identify the bin for LFKFCLGIPLFL and reply at your convenience. group B

Tag the class for MVAHTVRVKCGI group C

Class (by measured protein stability index) for MSIWKIFIWRLG group B

Kindly state the category for this sequence: LRPTFLLLFRPL group A

Class for VLLFGLAFFFSF ? group B

Into which category would you place FLLLVFGLLIDS ? group A

Could you tell me which band FSCSRNVLVTVV belongs to? group A

Into which category would you place LGSYIFVVVIYF ? group A

For this sequence, which bin applies? AAVQVCVLLLLL group A

====

Tested on: Saccharomyces cerevisiae
assay procedure: protein stability index of tFT-peptide fusion (C-terminal peptide) (PSI (0-1 scale)); higher = more stable (slower turnover)
test conditions: genetic background: wild type; temperature: 30 C
Assign MET whenever protein stability index does not fall below 0.7; assign NOT MET whenever it does.

ANKNDHNNQRQA : MET

Hi, just wondering whether ALCGWYMGLFHL shows protein stability index of 0.7 or higher. NOT MET

Please indicate if the recorded protein stability index for CVAGSARVCDVR meets or exceeds 0.7. NOT MET

====

Test system: Saccharomyces cerevisiae
assay procedure: protein stability index of tFT-peptide fusion (C-terminal peptide) (PSI (0-1 scale)); higher = more stable (slower turnover)
test conditions: genetic background: das1 deletion; temperature: 30 C
readout type: protein stability index
Output spec: single numeric token, no unit.

For the sequence shown here, DIFSRFSIILKC [YPR136C C-terminal 12 aa] , give the reported protein stability index. 0.413

Find the recorded protein stability index belonging to AQAEVIRGLQSL [CAP2 C-terminal 12 aa] and report it. 0.682

====

Tested on: Saccharomyces cerevisiae
assay procedure: protein stability index of tFT-peptide fusion (C-terminal peptide) (PSI (0-1 scale)); higher = more stable (slower turnover)
test conditions: genetic background: wild type; temperature: 30 C
Note to self: values exactly at 0.7 are criterion met. So protein stability index at or above 0.7 is criterion met, below is criterion not met.

Examples from the recorded data:
AFSASLAGSGRS : criterion met
FMRGQCWLRGCE : criterion not met
SFVLLSSFLVFV : criterion not met
RIATRCEGPGHK : criterion not met
PPPPPTPLPSTL : criterion met

Check if protein stability index >= 0.7 (inclusive). Item: KCPRPDATLYQS criterion met

Hi team, for LDEFFIKTSANM , is the recorded protein stability index at or above 0.7? criterion not met

# check: protein stability index of GAREHGSNDYGP is greater than or equal to 0.7 criterion not met

Would you say LSPLSPLLFRLI shows protein stability index at minimum 0.7? criterion not met

Assess whether reported protein stability index for GVRRAAFAKYGG sits at 0.7 or higher. criterion not met

====

Test system: Saccharomyces cerevisiae
assay procedure: protein stability index of tFT-peptide fusion (C-terminal peptide) (PSI (0-1 scale)); higher = more stable (slower turnover)
test conditions: genetic background: das1 deletion; temperature: 30 C
readout type: protein stability index
Respond using a number only.

ITKSSNKFVNNV [YNL043C C-terminal 12 aa] : 0.665

Turning now to a further sequence:
Recall the recorded protein stability index for EFSTLFDDYKDN [YRR1 C-terminal 12 aa] with Saccharomyces cerevisiae and state it. 0.743

====

Listing: protein stability index of selected sequences
Tested on: Saccharomyces cerevisiae
assay procedure: protein stability index of tFT-peptide fusion (C-terminal peptide) (PSI (0-1 scale)); higher = more stable (slower turnover)
test conditions: genetic background: wild type; temperature: 30 C
Lab note: jot the number down without any unit.

// solved cases for protein stability index follow
GLLFDKKKKARK [NOP19 C-terminal 12 aa] : 0.691
EEGPFKADHYRY [SAH1 C-terminal 12 aa] : 0.694
HELIKKRWDDRK [NCE101 C-terminal 12 aa] : 0.679
MLYTSYQSIFGV [AVT4 C-terminal 12 aa] : 0.706
KLTSTVTLNLLY [YGR107W C-terminal 12 aa] : 0.697

Can you look up the measured protein stability index of LAFRAHTMPNAP [ATO3 C-terminal 12 aa] for me? 0.694

Item under review: KPDVERVYKENT [FAA4 C-terminal 12 aa] . Reported protein stability index? 0.665

Give its protein stability index value. Item: SSSSLYTESPIR [IGO1 C-terminal 12 aa] 0.717

Which value of protein stability index has been reported for TANKAGNKFQLS [LDO16 C-terminal 12 aa] in the records? 0.675

Consider the sequence RAVTKYSSSTQA [HTB1 C-terminal 12 aa] and give its measured protein stability index. 0.695

Can you share its protein stability index? I mean this sequence: GTLESFFKRKAK [POL32 C-terminal 12 aa] 0.707

Would you kindly share the measured protein stability index for VTIFTWSSLLFV [TED1 C-terminal 12 aa] ? 0.454
